- assayed system: PGD2 receptor (Bos taurus, UniProt A5D7K8)
- Construct: EBTr[NBL-4] cells derived from embryonic bovine trachea; endogenous in cells; host or cells: EBTr[NBL-4] cells (embryonic bovine trachea)
- measurement notes: Competitive inhibition activity test to PGD2 receptor, cAMP production in EBTr[NBL-4] cells
- Format: cell-based, bovine
- condition set: PGD2 (1 μM), 37 degree C., 15 minutes, read-out: Competitive inhibition activity IC50, PGD2 (1 μM)
measured metric: IC50 (µM)

INSERT INTO assay_data (molecule, readout_units, quantitative_readout) VALUES
  ('O=C(O)Cc1ccccc1CC[C@@H]1[C@@H](C#C[C@@H](O)C2CCCCC2)[C@H](O)C[C@H]1Cl [Compound 51]', 'µM', 5.37),
  ('O=C(O)Cc1cccc(CC[C@@H]2[C@@H](C#C[C@@H](O)C3CCCCC3)[C@H](O)C[C@H]2Cl)c1 [Compound 38]', 'µM', 1.16);

----------
Measured IC50 accompanies every entry in the list below.
- assayed system: PGD2 receptor (Bos taurus)
- Construct: EBTr[NBL-4] cells derived from embryonic bovine trachea; endogenous in cells; host or cells: EBTr[NBL-4] cells (embryonic bovine trachea)
- Sequence (A5D7K8 1-361): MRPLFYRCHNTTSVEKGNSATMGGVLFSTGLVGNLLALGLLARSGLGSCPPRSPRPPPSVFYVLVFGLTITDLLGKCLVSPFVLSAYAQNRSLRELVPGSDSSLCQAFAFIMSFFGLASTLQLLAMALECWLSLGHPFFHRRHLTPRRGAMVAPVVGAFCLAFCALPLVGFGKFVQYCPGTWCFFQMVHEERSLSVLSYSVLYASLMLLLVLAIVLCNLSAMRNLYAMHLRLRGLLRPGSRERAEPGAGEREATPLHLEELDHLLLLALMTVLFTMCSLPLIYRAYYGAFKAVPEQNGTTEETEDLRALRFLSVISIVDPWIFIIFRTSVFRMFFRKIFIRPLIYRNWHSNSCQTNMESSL
- measurement notes: Competitive inhibition activity test to PGD2 receptor, cAMP production in EBTr[NBL-4] cells
- Format: cell-based, bovine
- condition set: Competitive inhibition activity IC50, PGD2 (100 nM), PGD2 (100 nM) as printed, 37 degree C., 15 minutes, read-out: Competitive inhibition activity IC50, PGD1 (100 nM)
measured metric: IC50

INSERT INTO results (compound, result) VALUES
  ('O=C(O)Cc1ccccc1CC[C@@H]1[C@@H](C#C[C@@H](O)C2CCCCC2)[C@H](O)C[C@H]1Cl [Compound 51]', '3420 nM'),
  ('O=C(O)Cc1cccc(CC[C@@H]2[C@@H](C#C[C@@H](O)C3CCCCC3)[C@H](O)C[C@H]2Cl)c1 [Compound 38]', '730 nM');
